target: c-Mer (Homo sapiens (Human), UniProt Q12866)
Sequence (Q12866 21-999): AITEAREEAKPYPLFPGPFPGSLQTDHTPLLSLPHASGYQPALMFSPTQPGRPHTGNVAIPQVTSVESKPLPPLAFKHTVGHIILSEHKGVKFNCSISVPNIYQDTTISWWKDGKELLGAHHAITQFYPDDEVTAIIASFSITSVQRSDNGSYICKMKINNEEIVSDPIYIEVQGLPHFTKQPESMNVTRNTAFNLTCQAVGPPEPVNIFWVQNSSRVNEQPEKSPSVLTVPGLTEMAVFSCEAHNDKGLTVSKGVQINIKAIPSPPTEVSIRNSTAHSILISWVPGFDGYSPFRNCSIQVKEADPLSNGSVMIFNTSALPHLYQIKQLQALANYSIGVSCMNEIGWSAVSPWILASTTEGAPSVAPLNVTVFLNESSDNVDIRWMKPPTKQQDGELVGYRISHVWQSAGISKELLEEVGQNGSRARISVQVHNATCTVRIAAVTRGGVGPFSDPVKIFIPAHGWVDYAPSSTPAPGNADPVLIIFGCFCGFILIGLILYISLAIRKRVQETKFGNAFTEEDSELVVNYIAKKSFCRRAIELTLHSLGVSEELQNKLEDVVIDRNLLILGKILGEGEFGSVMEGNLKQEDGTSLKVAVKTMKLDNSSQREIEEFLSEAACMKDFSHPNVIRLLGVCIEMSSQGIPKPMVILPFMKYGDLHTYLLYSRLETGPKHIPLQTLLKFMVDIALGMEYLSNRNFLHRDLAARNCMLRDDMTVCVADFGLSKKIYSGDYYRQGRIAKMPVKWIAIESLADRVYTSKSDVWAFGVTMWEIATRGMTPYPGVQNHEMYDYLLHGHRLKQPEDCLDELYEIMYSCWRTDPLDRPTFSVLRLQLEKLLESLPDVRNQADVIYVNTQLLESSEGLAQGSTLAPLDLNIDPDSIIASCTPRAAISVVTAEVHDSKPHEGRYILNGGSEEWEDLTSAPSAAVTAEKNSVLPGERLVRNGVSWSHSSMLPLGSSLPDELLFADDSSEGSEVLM
pIC50: −log10 of the molar value.
readout: pIC50

Lookup: Quick one: give measured pIC50 for `N[C@H]1CC[C@H](Cc2nc(-c3ccc(F)cc3)c3cnc(NCCCc4ccccc4)nn23)CC1`
Found: ≥ 7.00

* * *

biological target: Tyro3 (Homo sapiens (Human), UniProt Q06418)
Sequence (Q06418 41-890): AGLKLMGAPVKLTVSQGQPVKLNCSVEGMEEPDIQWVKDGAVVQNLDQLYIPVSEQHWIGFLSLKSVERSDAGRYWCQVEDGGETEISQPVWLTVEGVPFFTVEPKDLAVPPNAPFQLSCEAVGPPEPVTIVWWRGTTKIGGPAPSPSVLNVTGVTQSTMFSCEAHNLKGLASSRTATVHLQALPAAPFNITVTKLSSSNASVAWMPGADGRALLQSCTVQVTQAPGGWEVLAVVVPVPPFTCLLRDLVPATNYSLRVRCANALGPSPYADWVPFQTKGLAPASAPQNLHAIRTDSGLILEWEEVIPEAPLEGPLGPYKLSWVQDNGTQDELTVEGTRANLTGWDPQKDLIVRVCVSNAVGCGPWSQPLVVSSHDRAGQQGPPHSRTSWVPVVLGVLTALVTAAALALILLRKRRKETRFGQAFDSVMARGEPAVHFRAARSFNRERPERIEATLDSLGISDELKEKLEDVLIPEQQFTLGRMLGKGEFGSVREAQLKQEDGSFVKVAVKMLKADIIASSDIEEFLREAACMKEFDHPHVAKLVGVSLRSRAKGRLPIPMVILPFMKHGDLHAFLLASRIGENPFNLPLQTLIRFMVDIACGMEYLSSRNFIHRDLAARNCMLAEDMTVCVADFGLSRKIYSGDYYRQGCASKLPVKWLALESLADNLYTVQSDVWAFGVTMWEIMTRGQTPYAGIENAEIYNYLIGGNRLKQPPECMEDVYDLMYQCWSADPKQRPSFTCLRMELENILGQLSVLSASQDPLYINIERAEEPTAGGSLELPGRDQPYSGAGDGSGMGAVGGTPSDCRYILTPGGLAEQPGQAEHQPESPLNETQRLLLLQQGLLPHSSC
readout: IC50

Lookup: Find the measured IC50 of `N[C@H]1CC[C@H](Cc2nc(-c3ccc(F)cc3)c3cnc(NCCCc4ccccc4)nn23)CC1` and report it.
Found: > 1 µM
